Values were extracted from paper PMC11714206.

- assay_system: MAL^TIR (Homo sapiens)
- Construct: MAL (residues 79–221); 6xHis; made in house; host or cells: E. coli BL21 (DE3)
- assay_method_text: T‐Surf phage library (P8 and P3) selection against MAL^TIR, four rounds, NGS read counts
- Format: binding
- condition_label: P8 library, selection against MAL TIR; rank by count after grouping
readout_name: P8_MAL Rank (after)

A = ELDFSHFWLFDGQAGGEA
B = NLIQGWLLYRLLKIEK
Request: // task: argmin of P8_MAL Rank (after) over [ A , B ] Please reply using the label of the selected record.
Response: A

----------
- assay_system: MyD88^TIR (Homo sapiens, UniProt Q99836)
- Construct: MyD88 (residues 148–296); 6xHis; made in house; host or cells: E. coli BL21 (DE3)
- Sequence (Q99836 148-296): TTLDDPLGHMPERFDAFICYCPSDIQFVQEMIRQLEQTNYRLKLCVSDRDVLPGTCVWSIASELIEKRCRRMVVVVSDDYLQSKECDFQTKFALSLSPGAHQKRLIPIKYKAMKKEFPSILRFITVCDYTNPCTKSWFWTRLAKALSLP
- assay_method_text: T‐Surf phage library (P8 and P3) selection against MyD88^TIR, four rounds, NGS read counts
- Format: binding
- condition_label: P8_MyD88: rank by count before grouping
readout_name: Rank (before)

Sample answers from the record:
The recorded Rank (before) for entry LGYHWIAWECFVGIED equals 3247

Please fill in: Rank (before) reported for WALRELEAILQSFQLS = 154

According to the records, this sequence TSHFLDSYWAMFELNM displays Rank (before) of 152

// EWVKNSLLQYLDSQFE : Rank (before) value = 166

a = DPQDLELFYEQLVRPF
b = YASSTWALDELLQIFE
Request: Select one: a or b . Criterion: greater recorded Rank (before). Kindly give the label for the entry you pick.
Response: a
(a: 2844, b: 131)

----------
- assay_system: MAL^TIR (Homo sapiens)
- Construct: MAL (residues 79–221); 6xHis; made in house; host or cells: E. coli BL21 (DE3)
- assay_method_text: T‐Surf phage library (P8 and P3) selection against MAL^TIR, four rounds, NGS read counts
- Type: binding
- condition_label: P3_MAL: rank by count after grouping
- Protocol: T‐Surf libraries were screened against the immobilized TIR domains of two major human TLR adaptor proteins, MAL^TIR and MyD88^TIR, allowing cross‐species selection of TIR‐binding motifs with 190 946 TIR‐derived peptides in a single binding assay (Scheme 1). Enriched phage pools from the fourth round of selection were analyzed using NGS after barcoding the peptide‐coding regions of the phage pools. […]
readout_name: Rank (after)

For orientation, consider the following solved cases.
Reported Rank (after) (MAL^TIR (Homo sapiens)) for entry KEVEGWRDALSSIASRP is 163

Item PNLRTKGLNYRMRTKT ; assay system MAL^TIR (Homo sapiens); Rank (after) reported as 415

YAFTGHLRHHLQAKDH tested on MAL^TIR (Homo sapiens) gave Rank (after): 120

// returns Rank (after) for DIQRSRFKDDADLVGQ with MAL^TIR (Homo sapiens); value = 130

Reported Rank (after) (MAL^TIR (Homo sapiens)) for entry YFLHFLLFSRPETEYI is 386

Record for YFWNALENALAVNNDV under target or system MAL^TIR (Homo sapiens): Rank (after) reported as 479

The recorded Rank (after) with MAL^TIR (Homo sapiens) for ARLPAICIVIWCSVA was 106

For the sequence SSFREGLWRLLELSNE , the measured Rank (after) on MAL^TIR (Homo sapiens) was 153

// sequence RGFREGLWRLLELSKK , assay MAL^TIR (Homo sapiens), Rank (after) value: 103

Recorded Rank (after) for SLRNKLLSHLLEEFKS on MAL^TIR (Homo sapiens) was 418

P = ERILNQLRRSSQSIAK
Q = NQWSNSLTAAANLSGW
R = VRHNFIGYLRDALQHR
Request: Put the items in order so that reported Rank (after) rises from first to last. The labels, placed in the requested order, form the answer.
Response: R, Q, P

----------
- assay_system: MyD88^TIR (Homo sapiens, UniProt Q99836)
- Construct: MyD88 (residues 148–296); 6xHis; made in house; host or cells: E. coli BL21 (DE3)
- assay_method_text: T‐Surf phage library (P8 and P3) selection against MyD88^TIR, four rounds, NGS read counts
- Assay type: binding
- condition_label: P8 library, selection against MyD88, rank by count after grouping
readout_name: P8_MyD88 Rank (after)

Value (P8_MyD88 Rank (after), MyD88^TIR (Homo sapiens, UniProt Q99836)) for record ASSPWALYELVEILTA = 683

Lab entry: MyD88^TIR (Homo sapiens, UniProt Q99836) assay, sequence YNLAHYLYVSMRASGI , P8_MyD88 Rank (after) = 715

Known value: MyD88^TIR (Homo sapiens, UniProt Q99836) P8_MyD88 Rank (after) of the sequence YKLALHFRDWLLGAYI equals 742

# DHHLDLPRGKAIKPEILG with MyD88^TIR (Homo sapiens, UniProt Q99836): P8_MyD88 Rank (after) is 757

P8_MyD88 Rank (after) on MyD88^TIR (Homo sapiens, UniProt Q99836) for PNLRTKVLNYLMRTKT is 705

# lookup: DPLGQVRLSFRLFRQI on MyD88^TIR (Homo sapiens, UniProt Q99836), P8_MyD88 Rank (after) = 748

Here VANILGYHCIDWEHFVGIED was tested on MyD88^TIR (Homo sapiens, UniProt Q99836), and its P8_MyD88 Rank (after) came to 722

Reported MyD88^TIR (Homo sapiens, UniProt Q99836) P8_MyD88 Rank (after) for item WDFASNMEQFWIVCI was 706

The reported MyD88^TIR (Homo sapiens, UniProt Q99836) P8_MyD88 Rank (after) of QDLEQFYERLVSLI is 685

For the sequence DPQDEDWLYERLGGLF , the measured P8_MyD88 Rank (after) on MyD88^TIR (Homo sapiens, UniProt Q99836) was 712

For the sequence WALDELRKNLYAIETM , the measured P8_MyD88 Rank (after) on MyD88^TIR (Homo sapiens, UniProt Q99836) was 701

Response field P8_MyD88 Rank (after) (MyD88^TIR (Homo sapiens, UniProt Q99836)) for item DIQWALQKLMQIMEAF : 676

# P8_MyD88 Rank (after) measured on MyD88^TIR (Homo sapiens, UniProt Q99836) for item DPQDLQCSSERLVSLI = 691

# lookup: DWEWDYRLPNLEGPAC on MyD88^TIR (Homo sapiens, UniProt Q99836), P8_MyD88 Rank (after) = 745

# value of P8_MyD88 Rank (after), MyD88^TIR (Homo sapiens, UniProt Q99836), item DPQVLEWFYELLVSLL = 684

Value sought: P8_MyD88 Rank (after), system MyD88^TIR (Homo sapiens, UniProt Q99836), item FGDHRMWWEDLVGIVD . Result: 695

Observed P8_MyD88 Rank (after), MyD88^TIR (Homo sapiens, UniProt Q99836), DWVWDYMLTNLEGPAG : 708

Noted P8_MyD88 Rank (after) for DPQELQWIYERLVSLF , tested on MyD88^TIR (Homo sapiens, UniProt Q99836): 759

The sequence YPQELVLFYELLGSLV , when measured on MyD88^TIR (Homo sapiens, UniProt Q99836), yielded P8_MyD88 Rank (after) of 699

----------
- assay_system: MAL^TIR (Homo sapiens, UniProt P58753)
- Construct: MAL (residues 79–221); 6xHis; made in house; host or cells: E. coli BL21 (DE3)
- Sequence (P58753 79-221): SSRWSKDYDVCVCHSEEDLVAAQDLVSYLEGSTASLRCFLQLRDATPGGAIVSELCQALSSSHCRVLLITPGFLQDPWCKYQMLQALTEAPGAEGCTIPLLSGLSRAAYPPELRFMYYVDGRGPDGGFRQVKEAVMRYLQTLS
- assay_method_text: T‐Surf phage library (P8 and P3) selection against MAL^TIR, four rounds, NGS read counts
- Type: binding
- condition_label: P3 library, selection against MAL, rank by count before grouping
readout_name: P3_MAL Rank (before)

Please fill in: P3_MAL Rank (before) reported for EKIVEWVWEKAHNRFK = 2080

For HLLKKPRNKRISPFIA the sequence record lists P3_MAL Rank (before) as 2803

Recorded result, PNLRTTVPTYLMRTKT , P3_MAL Rank (before): 2689

----------
- assay_system: MAL^TIR (Homo sapiens)
- Construct: MAL (residues 79–221); 6xHis; made in house; host or cells: E. coli BL21 (DE3)
- assay_method_text: T‐Surf phage library (P8 and P3) selection against MAL^TIR, four rounds, NGS read counts
- Format: binding
- condition_label: P3_MAL: rank by count after grouping
- Protocol: T‐Surf libraries were screened against the immobilized TIR domains of two major human TLR adaptor proteins, MAL^TIR and MyD88^TIR, allowing cross‐species selection of TIR‐binding motifs with 190 946 TIR‐derived peptides in a single binding assay (Scheme 1). Enriched phage pools from the fourth round of selection were analyzed using NGS after barcoding the peptide‐coding regions of the phage pools. […]
readout_name: Rank (after)

response.value for HHKAAMAKRWRNMKN (field: Rank (after)) = 401

P = YAFTGYLHRYLVQRGG
Q = LKWGYPWFWDRLRFA
R = YAFTGHLQRYLLQRGV
Request: Kindly order the items shown according to Rank (after), from the highest value down. Use the labels to give the ranking in the order requested.
Response: P, R, Q
